# SUBJECT_OF_TEST: T1, human IL2Rα Fc fusion protein (human, UniProt P01589 22-213, limits assumed)
# T1 construct: also called CD25; not shown: Fc part
# T1 sequence (looked up): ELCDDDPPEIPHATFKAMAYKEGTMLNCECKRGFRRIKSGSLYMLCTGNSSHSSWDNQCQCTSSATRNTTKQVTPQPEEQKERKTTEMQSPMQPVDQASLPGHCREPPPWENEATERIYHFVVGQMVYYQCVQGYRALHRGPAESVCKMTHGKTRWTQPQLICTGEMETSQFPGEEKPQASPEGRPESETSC
# ASSAY_OVERVIEW: ELISA, single concentration, anti-flag detection, E. coli-produced clone
OBSERVED_PROPERTY: OD450 nm (OD450)

BINDER	OD450 nm [OD450]
EP585 (clone 2021EP16-C03), E. coli-produced (ligand) APASSSTKKTQLQLEHLLLDLQMILNGINNYKNPKLTRMLTFKFYMPKKATELKHLQCLEEELKPLEEVLNLAQSKNFHLSPPDLIANMAVYFVELKGSETTFMCEYADETATIVEFLNRWITFSQSIISTLT	0.614
EP582 (clone 2021EP16-G10), E. coli-produced (ligand) APASSSTKKTQLQLEHLLLDLQMILNGINNYKNPKLTRMLTFKFYMPKKATELKHLQCLEEELKPLEEVLNLAQSKNFHLTHRDVISDVNVLALELKGSETTFMCEYADETATIVEFLNRWITFSQSIISTLT	1.08
EP566 (clone 2021EP22-H09), E. coli-produced (ligand) APASSSTKKTQLQLEHLLLDLQMILNGINNYKNPKLTRMLTFKFYMPKKATELKHLQCLEEELKPLEEVLNLAQSKNFHLRLTHLRNVIGVILVQLKGSETTFMCEYADETATIVEFLNRWITFSQSIISTLT	0.251
EP572 (clone 2021EP21-C03), E. coli-produced (ligand) APASSSTKKTQLQLEHLLLDLQMILNGINNYKNPKLTRMLTFKFYMPKKATELKHLQCLEEELKPLEEVLNLAQSKNFHLRARDIVRNAKVGVQELKGSETTFMCEYADETATIVEFLNRWITFSQSIISTLT	0.079

A. EP573 (clone 2021EP16-E02), E. coli-produced (ligand) APASSSTKKTQLQLEHLLLDLQMILNGINNYKNPKLTRMLTFKFYMPKKATELKHLQCLEEELKPLEEVLNLAQSKNFHLNRTDLVGDVNATIKALKGSETTFMCEYADETATIVEFLNRWITFSQSIISTLT
B. EP577 (clone 2021EP16-E05), E. coli-produced (ligand) APASSSTKKTQLQLEHLLLDLQMILNGINNYKNPKLTRMLTFKFYMPKKATELKHLQCLEEELKPLEEVLNLAQSKNFHLKAIAFISDLKVRVLDLKGSETTFMCEYADETATIVEFLNRWITFSQSIISTLT
C. EP574 (clone 2021EP22-B04), E. coli-produced (ligand) APASSSTKKTQLQLEHLLLDLQMILNGINNYKNPKLTRMLTFKFYMPKKATELKHLQCLEEELKPLEEVLNLAQSKNFHLFTKDLTSTMQILVLQLKGSETTFMCEYADETATIVEFLNRWITFSQSIISTLT
// ascending sort on recorded OD450 nm As an answer, provide the labels arranged in the order called for.
C, B, A
(C: 0.171 OD450, B: 0.771 OD450, A: 1.58 OD450)

All values here come from patent US20250326813A1.
